Source: patent US11154480B2

Experiment: Benedict's Test for reducing sugars
Format: physicochemical
Details: 100° C., 40 min
measured-metric: Assessment of sugars using the Benedict's Test

{"columns": ["compound", "assay-value"],
 "data": [
  ["OC[C@H]1O[C@@](CO)(O[C@H]2O[C@H](CO)[C@@H](O)[C@H](O)[C@H]2O)[C@@H](O)[C@@H]1O", "Positive"],
  ["O=C(CO)[C@@H](O)[C@H](O)[C@H](O)CO", "Positive"],
  ["CO[C@H]1OC(CO)[C@H](O)[C@@H](O)[C@@H]1O (stereo partly drawn) [Methyl glucoside]", "Positive"],
  ["O=C[C@@H](O)[C@H](O)[C@H](O)CO", "Positive"],
  ["O=C[C@H](O)[C@@H](O)[C@H](O)CO", "Positive"],
  ["O=C[C@H](O)[C@H](O)[C@H](O)CO", "Positive"]
]}
